# Tested on: K562
# Assay protocol: Cytotoxicity against human K562 cells after 72 hrs by MTT assay
# Type: functional, cell-based
# Condition description: K562, 72 h
Assign labels as follows, please: MET for IC50 below 100 µM; NOT MET for IC50 equal to or exceeding 100 µM.

As a guide, the following entries are already answered.
{"Smiles code": "COc1ccc(-n2nc(-c3nc4ccccc4[nH]3)c3nc4ccccc4n3c2=O)cc1", "Classification": "MET"}
{"Smiles code": "CCOC(=O)n1c(-c2nn(-c3ccc(OC)cc3)c(=O)n3c2nc2ccccc23)nc2ccccc21", "Classification": "MET"}
{"Smiles code": "O=c1n(-c2ccccc2)nc(-c2nc3ccccc3[nH]2)c2nc3ccccc3n12", "Classification": "MET"}
{"Smiles code": "CCOC(=O)n1c(-c2nn(-c3ccccc3)c(=O)n3c2nc2ccccc23)nc2ccccc21", "Classification": "MET"}
{"Smiles code": "CCOC(=O)n1c(-c2nn(-c3ccc([N+](=O)[O-])cc3)c(=O)n3c2nc2ccccc23)nc2ccccc21", "Classification": "NOT MET"}

**Q:** IC50 under 100 µM? Item: CCOC(=O)n1c(-c2nn(-c3ccc(Cl)cc3)c(=O)n3c2nc2ccccc23)nc2ccccc21
**A:** MET

**Q:** IC50 under 100 µM? Item: Cc1ccc(NN=C(c2nc3ccccc3[nH]2)c2nc3ccccc3[nH]2)cc1
**A:** NOT MET

**Q:** IC50 under 100 µM? Item: Cc1ccc(-n2nc(-c3nc4ccccc4[nH]3)c3nc4ccccc4n3c2=O)cc1
**A:** MET

**Q:** IC50 under 100 µM? Item: O=c1n(-c2ccc([N+](=O)[O-])cc2)nc(-c2nc3ccccc3[nH]2)c2nc3ccccc3n12
**A:** NOT MET

**Q:** IC50 under 100 µM? Item: O=c1n(-c2ccc(Cl)cc2)nc(-c2nc3ccccc3[nH]2)c2nc3ccccc3n12
**A:** NOT MET

**Q:** IC50 under 100 µM? Item: COc1ccc(NN=C(c2nc3ccccc3[nH]2)c2nc3ccccc3[nH]2)cc1
**A:** NOT MET

**Q:** IC50 under 100 µM? Item: CCOC(=O)n1c(-c2nn(-c3ccc(C)cc3)c(=O)n3c2nc2ccccc23)nc2ccccc21
**A:** NOT MET

**Q:** IC50 under 100 µM? Item: O=[N+]([O-])c1ccc(NN=C(c2nc3ccccc3[nH]2)c2nc3ccccc3[nH]2)cc1
**A:** NOT MET

**Q:** IC50 under 100 µM? Item: c1ccc(NN=C(c2nc3ccccc3[nH]2)c2nc3ccccc3[nH]2)cc1
**A:** NOT MET

**Q:** IC50 under 100 µM? Item: Clc1ccc(NN=C(c2nc3ccccc3[nH]2)c2nc3ccccc3[nH]2)cc1
**A:** NOT MET

----------
# Test system: K562
# Assay protocol: Cytotoxicity against human K562-Tax cells after 72 hrs by MTT assay
# Assay type: functional, cell-based
# Condition description: K562, 72 h
Measured endpoint: pIC50
// pIC50 is dimensionless: -log10 of concentration (M)

Please review the entries below; each comes with its answer.
{"Smiles code": "CCOC(=O)n1c(-c2nn(-c3ccc([N+](=O)[O-])cc3)c(=O)n3c2nc2ccccc23)nc2ccccc21", "pIC50": 3.71}
{"Smiles code": "O=c1n(-c2ccc([N+](=O)[O-])cc2)nc(-c2nc3ccccc3[nH]2)c2nc3ccccc3n12", "pIC50": 3.60}
{"Smiles code": "O=c1n(-c2ccccc2)nc(-c2nc3ccccc3[nH]2)c2nc3ccccc3n12", "pIC50": 4.37}

**Q:** Specify measured pIC50 for CCOC(=O)n1c(-c2nn(-c3ccc(C)cc3)c(=O)n3c2nc2ccccc23)nc2ccccc21 .
**A:** 4.27

**Q:** Specify measured pIC50 for COc1ccc(-n2nc(-c3nc4ccccc4[nH]3)c3nc4ccccc4n3c2=O)cc1 .
**A:** 5.12
